Molecular target: T1, Rhesus macaque CD4-HIS (Acro Biosystems, Cat. CD4-C52H7) (rhesus macaque, UniProt P16003 26-390)
T1 construct: Bought reagent; also called Rhesus CD4; rhesus CD4-HIS; not shown: His tag
T1 sequence (P16003 26-390 limits assumed): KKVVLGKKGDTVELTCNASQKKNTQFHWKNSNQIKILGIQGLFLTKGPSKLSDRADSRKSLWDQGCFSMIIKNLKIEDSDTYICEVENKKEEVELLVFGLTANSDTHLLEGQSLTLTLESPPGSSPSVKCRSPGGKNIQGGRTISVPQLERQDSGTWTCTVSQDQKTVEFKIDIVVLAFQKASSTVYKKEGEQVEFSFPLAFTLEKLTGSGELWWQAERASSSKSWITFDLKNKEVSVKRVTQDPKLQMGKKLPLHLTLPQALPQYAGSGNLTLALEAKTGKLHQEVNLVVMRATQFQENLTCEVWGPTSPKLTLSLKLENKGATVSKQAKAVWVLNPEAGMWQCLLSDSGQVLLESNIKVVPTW
Assay: BLI Octet, mAb on anti-mouse Fc sensor, rhesus CD4-HIS 25-100 nM, 1:1 global fit;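 note: purified antibodies captured at 10 µg/mL, rhesus CD4 analyte run as a three-concentration serial dilution, irrelevant antibody as reference control, one kinetic constant set per antibody from global fitting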
Kindly supply the reported Response values for the records listed here.

q: Would you mind telling me what Response value was observed for 75110_03L12A (antibody, V domains shown, Tested as antibody purified from AlivaMab Mouse hybridoma supernatant (captured by anti-mouse IgG Fc)) VH: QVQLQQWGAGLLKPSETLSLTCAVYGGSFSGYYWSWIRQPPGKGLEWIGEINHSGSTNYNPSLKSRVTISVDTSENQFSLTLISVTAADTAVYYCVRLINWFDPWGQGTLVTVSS VL: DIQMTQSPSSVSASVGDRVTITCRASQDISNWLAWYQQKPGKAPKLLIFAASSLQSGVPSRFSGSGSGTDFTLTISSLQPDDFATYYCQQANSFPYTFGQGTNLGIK ?
a: 0.08

q: State the recorded Response for this entry: 75110_01H18A (antibody, V domains shown, Tested as antibody purified from AlivaMab Mouse hybridoma supernatant (captured by anti-mouse IgG Fc)) VH: QVQLQQWGAGLLKPSETLSLTCAVYGGSFSGYYWSWIRQSPGKGLEWIGEINQSGSTNYNPSLKSRVTISVDTSKNQFSLKLSSVTAADTAVYYCARVINWFDSWGQGTLVTVSS VL: DIQMTQSPSSVSASVGDRVTITCRASQGISSWLAWYQQKPGKAPKLLIYAASSFQSGVPSRFSGSGSGTDFTLTISSLQTEDFATYYCQQANSFPYTFGQGTRLEIK
a: 0.11

q: Report Response for 75110_03C01A (antibody, V domains shown, Tested as antibody purified from AlivaMab Mouse hybridoma supernatant (captured by anti-mouse IgG Fc)) VH: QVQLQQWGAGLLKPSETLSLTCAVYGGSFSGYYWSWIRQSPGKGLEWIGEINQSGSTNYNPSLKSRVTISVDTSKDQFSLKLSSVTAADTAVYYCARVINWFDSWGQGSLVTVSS VL: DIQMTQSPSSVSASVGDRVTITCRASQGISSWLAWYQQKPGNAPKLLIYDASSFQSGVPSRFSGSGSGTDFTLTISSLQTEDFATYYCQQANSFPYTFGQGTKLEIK please.
a: 0.18

q: Would you kindly share the measured Response for 75110_04G16A (antibody, V domains shown, Tested as antibody purified from AlivaMab Mouse hybridoma supernatant (captured by anti-mouse IgG Fc)) VH: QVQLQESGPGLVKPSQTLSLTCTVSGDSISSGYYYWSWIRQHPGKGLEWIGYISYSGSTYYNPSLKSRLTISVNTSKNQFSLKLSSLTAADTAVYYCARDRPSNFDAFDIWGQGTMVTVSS VL: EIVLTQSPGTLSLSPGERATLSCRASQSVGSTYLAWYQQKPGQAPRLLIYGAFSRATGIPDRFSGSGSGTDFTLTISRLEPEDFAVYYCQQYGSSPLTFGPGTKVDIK ?
a: 0.27
